# Tested on: AML-SH-074
# test.summary: Cell viability in patient derived AML samples (CellTiterGlo, 72 h)
# Type: cell-based, human
# experimental.parameters: Homo sapiens, 72 h, read-out: AML-SH-074 IC50
measurement.type: IC50

Find the recorded IC50 belonging to CN[C@@H](C)C(=O)N[C@H]1CCO[C@H]2CC(C)(C)[C@@H](C(=O)N[C@H]3c4ccccc4C[C@H]3OCC#CC#CCO[C@@H]3Cc4ccccc4[C@@H]3NC(=O)[C@H]3N4C(=O)[C@@H](NC(=O)[C@H](C)NC)CCO[C@H]4CC3(C)C)N2C1=O [Compound 18q] and report it. 0.1 to 1 µM

Sourced from patent US12678509B2
